Where do these numbers come from? They come from patent US20250333523A1.

Biological target: T1, Avi/His-HuIL18BPa (recombinant human IL-18BP isoform A with Avi and poly-His tags) (human, biotinylated with BirA on the Avi tag in some assays)
T1 construct: also called human IL-18BP-Avi-His
T1 chain: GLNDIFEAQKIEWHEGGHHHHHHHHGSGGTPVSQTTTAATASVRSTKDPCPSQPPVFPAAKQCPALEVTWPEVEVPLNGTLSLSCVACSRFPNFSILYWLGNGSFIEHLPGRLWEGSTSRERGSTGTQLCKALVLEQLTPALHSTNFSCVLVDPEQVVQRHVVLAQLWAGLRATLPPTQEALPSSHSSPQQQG
Assay: blocking ELISA, competitor human IL-18
Consider the following binders; for each one, report its blocking ELISA signal normalized to isotype control (=1).

Worked examples, 2 binders total:
anti-IL18BP antibody BP-02 (antibody, human IgG1, V domains shown) VH: EVQLQQSGPELVKPGASVKIPCKASGYTFTDYNMDWVKQSHGKSLEWIGNINTNNGGTVYNQKFKGKATLTVDKSSSTAYMELRSLTSEDTAVYYCARSDTTVVASRYYAMDYWGQGTSVTVSL VL: DIVLTQSPASLAMSLGKRATISCRASESVSIIATNLIHWYQQKPGQPPKLLIYHASNLETGVPARFSGSGSRTDFTLTIDPVEKDDVAIYYCLQSRKIPPTFGGGTKLEIK	0.167 ratio to isotype control
anti-IL18BP antibody BP-11 (antibody, human IgG1, V domains shown) VH: QVQLQQSGAELAKPGASVKMSCKASGYTFTNYWMHWVKQRPGQGLEWIGHIDPSTGYTEYNQKFKDKATLTADKSSSTAYMQLSSLTSEDSAVYYCARGLGGLFGYWGQGTLVTVSA VL: DIQMTQSPSSLSASLGGKVTITCKASQDINKFIAWYQHKPGKGPRLLIHHTSTLMPGIPSRFSGSGSGREYSFSISNLEPEDIATYYCLQYDNLLWTFGGGTKLEIR	0.089 ratio to isotype control

--- query ---
Query: Which blocking ELISA signal normalized to isotype control (=1) is listed for anti-IL18BP antibody BP-03 (antibody, human IgG1, V domains shown) VH: EVQLQQSGPELVKPGASVKIPCKASGYTFTDYNMDWVKQSHGKSLEWIGNINTDNGGTVYNQKFKGKATLTVDQSSSTAYMELRSLTSEDTAVYYCARSDTTVVASRYYAMDYWGQGTSVTVSS VL: DIVLTQSPASLAMSLGKRATISCRASESVSIIGTNLIHWYQQKPGQPPKLLIYHASNLETGVPARFSGSGSRTDFTLTIDPVEEDDVAIYYCLQSRKIPPTFGGGTKLEIK ?
Response: 0.151 ratio to isotype control
